test system: HIV with mutations in the HIV protease sequence; experiment: Phenotypic fold resistance to protease inhibitors, protease mutations 84A/84L/84C/54M/54L/54V in a background (Examples 8-13); format: cell-based, HIV-1; conditions: Table 9 #8, protease genotype 10I + 46I + 84A
Measurement name: mean fold increase in resistance (fold)
Unit fold implied. Number only.

CC(C)(C)NC(=O)[C@@H]1C[C@@H]2CCCC[C@@H]2CN1C[C@@H](O)[C@H](Cc1ccccc1)NC(=O)[C@H](CC(N)=O)NC(=O)c1ccc2ccccc2n1 :: 48.2
CC(C)c1nc(CN(C)C(=O)N[C@H](C(=O)N[C@@H](Cc2ccccc2)C[C@H](O)[C@H](Cc2ccccc2)NC(=O)OCc2cncs2)C(C)C)cs1 :: 77.3
CC(C)CN(C[C@@H](O)[C@H](Cc1ccccc1)NC(=O)O[C@H]1CCOC1)S(=O)(=O)c1ccc(N)cc1 :: 17

Form: molecule = `Cc1c(O)cccc1C(=O)N[C@@H](CSc1ccccc1)[C@H](O)CN1C[C@H]2CCCC[C@H]2C[C@H]1C(=O)NC(C)(C)C` ; mean fold increase in resistance = 43.9

Form: molecule = `CC(C)(C)NC(=O)[C@@H]1CN(Cc2cccnc2)CCN1C[C@@H](O)C[C@@H](Cc1ccccc1)C(=O)N[C@H]1c2ccccc2C[C@H]1O` ; mean fold increase in resistance = 33.4

###

Fold change in IC50 values for the compounds below.
tested on: HIV with mutations in the HIV protease sequence; assay: Phenotypic fold resistance to protease inhibitors, protease mutations 84A/84L/84C/54M/54L/54V in a background (Examples 8-13); format: cell-based, HIV-1; details: Table 13, V052955, genotype 33F + 71V + 90M
Hey, just the number and the unit after it is fine.

CC(C)(C)NC(=O)[C@@H]1CN(Cc2cccnc2)CCN1C[C@@H](O)C[C@@H](Cc1ccccc1)C(=O)N[C@H]1c2ccccc2C[C@H]1O :: 5.3 fold
CC(C)c1nc(CN(C)C(=O)N[C@H](C(=O)N[C@@H](Cc2ccccc2)C[C@H](O)[C@H](Cc2ccccc2)NC(=O)OCc2cncs2)C(C)C)cs1 :: 77.9 fold
CC(C)(C)NC(=O)[C@@H]1C[C@@H]2CCCC[C@@H]2CN1C[C@@H](O)[C@H](Cc1ccccc1)NC(=O)[C@H](CC(N)=O)NC(=O)c1ccc2ccccc2n1 :: 20.4 fold
CC(C)CN(C[C@@H](O)[C@H](Cc1ccccc1)NC(=O)O[C@H]1CCOC1)S(=O)(=O)c1ccc(N)cc1 :: 2.7 fold

Now for the compound whose Fold change in IC50 we want.
Form: compound = `Cc1c(O)cccc1C(=O)N[C@@H](CSc1ccccc1)[C@H](O)CN1C[C@H]2CCCC[C@H]2C[C@H]1C(=O)NC(C)(C)C` ; Fold change in IC50 = 36.6 fold

###

system: HIV with mutations in the HIV protease sequence; assay: Phenotypic fold resistance to protease inhibitors, protease mutations 84A/84L/84C/54M/54L/54V in a background (Examples 8-13); format: cell-based, HIV-1; conditions: Table 12, V052948, genotype 10I + 71V + 90M
Fold change in IC50 values for the compounds below.
Unit fold implied. Number only.

Cc1c(O)cccc1C(=O)N[C@@H](CSc1ccccc1)[C@H](O)CN1C[C@H]2CCCC[C@H]2C[C@H]1C(=O)NC(C)(C)C :: 9.0
CC(C)CN(C[C@@H](O)[C@H](Cc1ccccc1)NC(=O)O[C@H]1CCOC1)S(=O)(=O)c1ccc(N)cc1 :: 2.0
CC(C)c1nc(CN(C)C(=O)N[C@H](C(=O)N[C@@H](Cc2ccccc2)C[C@H](O)[C@H](Cc2ccccc2)NC(=O)OCc2cncs2)C(C)C)cs1 :: 10.5
CC(C)(C)NC(=O)[C@@H]1CN(Cc2cccnc2)CCN1C[C@@H](O)C[C@@H](Cc1ccccc1)C(=O)N[C@H]1c2ccccc2C[C@H]1O :: 8.6

Form: compound = `CC(C)(C)NC(=O)[C@@H]1C[C@@H]2CCCC[C@@H]2CN1C[C@@H](O)[C@H](Cc1ccccc1)NC(=O)[C@H](CC(N)=O)NC(=O)c1ccc2ccccc2n1` ; Fold change in IC50 = 4.8
